# PROTOCOL: The drug is tested on Edwardsiella tarda strain: ATCC23685 for biotransformation. The drug concentrations were measured before and after a 12-h incubation by liquid-chromatography-coupled mass spectrometry (LC–MS)
# TEST CONTEXT: 2 µM
RESULT TYPE: Bacterial Biotransformation

COMPOUND	EXPERIMENTAL RESULT
CCOC(=O)[C@H](CCc1ccccc1)N[C@@H](C)C(=O)N1Cc2ccccc2C[C@H]1C(=O)O	Compound NOT metabolized
COC(=O)[C@H]1[C@H]2C[C@@H]3c4[nH]c5cc(OC)ccc5c4CCN3C[C@H]2C[C@@H](OC(=O)c2cc(OC)c(OC)c(OC)c2)[C@@H]1OC	Compound NOT metabolized
C[C@@H]1C[C@H]2[C@@H]3CCC4=CC(=O)C=C[C@]4(C)[C@@]3(F)[C@@H](O)C[C@]2(C)[C@@]1(O)C(=O)CO	Compound NOT metabolized
CC(C)(C#N)c1cc(Cn2cncn2)cc(C(C)(C)C#N)c1	Compound NOT metabolized
CN1CCc2c(c3ccccc3n2Cc2ccccc2)C1.CN1CCc2c(c3ccccc3n2Cc2ccccc2)C1.O=S(=O)(O)c1cccc2c(S(=O)(=O)O)cccc12	Compound NOT metabolized
COc1ccccc1OCCNCC(O)COc1cccc2[nH]c3ccccc3c12 (stereo unspecified)	Compound NOT metabolized
COc1ccnc(C[S+]([O-])c2nc3ccc(OC(F)F)cc3[nH]2)c1OC (stereo unspecified)	Compound metabolized
CNC(=C[N+](=O)[O-])NCCSCc1csc(CN(C)C)n1	Compound metabolized
CCCC1O[C@@H]2C[C@H]3[C@@H]4CCC5=CC(=O)C=C[C@]5(C)[C@H]4[C@@H](O)C[C@]3(C)[C@]2(C(=O)CO)O1 (stereo partly specified) [BUDESONIDE]	Compound NOT metabolized
COc1ccc2[nH]c([S+]([O-])Cc3ncc(C)c(OC)c3C)nc2c1 (stereo unspecified)	Compound metabolized
CC(=O)OCC(=O)[C@@]1(OC(C)=O)[C@@H](C)C[C@H]2[C@@H]3C[C@H](F)C4=CC(=O)C=C[C@]4(C)[C@@]3(F)[C@@H](O)C[C@@]21C [DIFLORASONE DIACETATE]	Compound NOT metabolized
C[C@H]1O[C@@H](O[C@H]2[C@@H](O)C[C@H](O[C@H]3[C@@H](O)C[C@H](O[C@H]4CC[C@@]5(C)[C@H](CC[C@@H]6[C@@H]5C[C@@H](O)[C@]5(C)[C@@H](C7=CC(=O)OC7)CC[C@]65O)C4)O[C@@H]3C)O[C@@H]2C)C[C@H](O)[C@@H]1O	Compound NOT metabolized
CN1C(C(=O)Nc2ccccn2)=C(O)c2sccc2S1(=O)=O	Compound NOT metabolized
O=C1CN2Cc3c(ccc(Cl)c3Cl)N=C2N1 [ANAGRELIDE]	Compound NOT metabolized
CCc1oc2ccccc2c1C(=O)c1cc(Br)c(O)c(Br)c1	Compound NOT metabolized
CCOC(=O)[C@H](CCc1ccccc1)N[C@@H](C)C(=O)N1CCC[C@H]1C(=O)O.O=C(O)/C=C\C(=O)O [ENALAPRIL MALEATE]	Compound NOT metabolized
C#C[C@]1(OC(C)=O)CC[C@H]2[C@@H]3CCC4=C[C@@H](OC(C)=O)CC[C@@H]4[C@H]3CC[C@@]21C [ETHYNODIOL DIACETATE]	Compound NOT metabolized
CCN(CC)C(=O)/C(C#N)=C/c1cc(O)c(O)c([N+](=O)[O-])c1	Compound metabolized
CCN1CCCC1CNC(=O)c1cc(S(=O)(=O)CC)c(N)cc1OC (stereo unspecified) [AMISULPRIDE]	Compound NOT metabolized
Cc1ccc(/C(=C\CN2CCCC2)c2ccccn2)cc1	Compound NOT metabolized
Cc1cc2c(cc1S(N)(=O)=O)S(=O)(=O)CCC2	Compound NOT metabolized
CC(=O)Oc1ccc(C(c2ccc(OC(C)=O)cc2)c2ccccn2)cc1	Compound metabolized
CN(C)C(=O)C(CCN1CCC(O)(c2ccc(Cl)cc2)CC1)(c1ccccc1)c1ccccc1 [LOPERAMIDE]	Compound NOT metabolized
Cc1ccc(S(=O)(=O)NC(=O)NN2CCCCCC2)cc1 [TOLAZAMIDE]	Compound NOT metabolized
CCCCC1=NC2(CCCC2)C(=O)N1Cc1ccc(-c2ccccc2-c2nnn[nH]2)cc1	Compound metabolized
CC(=O)OCC(=O)[C@@]1(O)[C@@H](C)C[C@H]2[C@@H]3CCC4=CC(=O)C=C[C@]4(C)[C@@]3(F)[C@@H](O)C[C@@]21C [BETAMETHASONE ACETATE]	Compound NOT metabolized
CCOC(=O)C1=C[C@]2(CC)CCCN3CCc4c(n1c1ccccc41)[C@@H]32	Compound NOT metabolized
Fc1ccc([C@@H]2CCNC[C@H]2COc2ccc3c(c2)OCO3)cc1	Compound NOT metabolized
CC12CC3CC(C)(C1)CC(N)(C3)C2 [MEMANTINE]	Compound NOT metabolized
O=C(NCc1ccccc1)OCCO [BURAMATE]	Compound NOT metabolized
O=C(O)CCC(=O)O.O=C(O[C@H]1CN2CCC1CC2)N1CCc2ccccc2[C@@H]1c1ccccc1 [SOLIFENACIN SUCCINATE]	Compound NOT metabolized
